Target: PYL2-HAB1 (Arabidopsis thaliana)
Construct: 6xHis (N); made in house; host or cells: E. coli BL21[DE3]pLysS (stated for GST-HAB1)
Sequence (O80992 whole entry): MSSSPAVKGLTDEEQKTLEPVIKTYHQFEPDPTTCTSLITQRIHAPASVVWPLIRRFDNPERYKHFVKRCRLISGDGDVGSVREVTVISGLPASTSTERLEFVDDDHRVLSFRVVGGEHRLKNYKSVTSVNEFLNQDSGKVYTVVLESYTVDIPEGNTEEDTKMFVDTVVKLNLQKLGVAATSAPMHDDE
Sequence (Q9CAJ0 23-511 partner): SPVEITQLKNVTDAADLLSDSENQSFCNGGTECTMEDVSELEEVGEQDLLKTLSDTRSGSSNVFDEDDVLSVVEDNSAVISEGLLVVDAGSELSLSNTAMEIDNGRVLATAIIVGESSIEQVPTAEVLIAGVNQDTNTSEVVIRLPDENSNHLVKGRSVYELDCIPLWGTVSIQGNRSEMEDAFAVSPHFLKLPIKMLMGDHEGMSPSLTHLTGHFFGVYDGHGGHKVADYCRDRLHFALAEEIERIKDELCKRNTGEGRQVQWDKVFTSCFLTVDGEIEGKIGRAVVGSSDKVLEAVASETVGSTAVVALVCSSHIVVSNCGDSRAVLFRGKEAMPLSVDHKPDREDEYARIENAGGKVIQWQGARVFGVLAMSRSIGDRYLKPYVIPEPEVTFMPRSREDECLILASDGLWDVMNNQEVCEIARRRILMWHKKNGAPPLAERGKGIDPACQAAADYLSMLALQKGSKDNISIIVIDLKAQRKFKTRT
Test: PP2C activity assay, PYL2-HAB1 inhibition
Assay type: biochemical
Conditions: dose response in triplicate, non-linear regression
Description: The protein HAB1, a type 2 protein phosphatase (PP2C), is inhibited by PYR/PYL proteins in dependence of abscisic acid or other agonists. […] Since inhibition of PP2C correlates to inhibition of seed-germination and increase in plant water-use efficiency, it serves as a powerful tool to quantify biological potential of a chemical acting as an analogue of abscisic acid. […]
MEASURED METRIC: IC50 (nM)

compound="CCc1ccc(CS(=O)(=O)Nc2cc(F)c3c(c2)C(C)CC(=O)N3C(C)C)cc1 (centres unmarked)" value_observed=26
compound=CCCN1C(=O)CCc2cc(NS(=O)(=O)Cc3ccc(Cl)cc3)cc(F)c21 value_observed=102
compound=CCN1C(=O)CCc2cc(NS(=O)(=O)Cc3ccc(C)cc3)cc(F)c21 value_observed=83

[I] C=CCN1C(=O)CC(C)c2cc(NS(=O)(=O)Cc3ccc(CC)cc3)cc(F)c21 (centres unmarked)
[II] CCN1C(=O)CC(C)c2cc(NS(=O)(=O)Cc3ccc(COC)cc3)cc(F)c21 (centres unmarked)
Lower value of IC50 belongs to which: I or II ? Answer by quoting the chosen item's label.
II
